Here we list compounds with their recorded Kd when tested on CRAF (Homo sapiens).
Sequence (P04049 whole entry): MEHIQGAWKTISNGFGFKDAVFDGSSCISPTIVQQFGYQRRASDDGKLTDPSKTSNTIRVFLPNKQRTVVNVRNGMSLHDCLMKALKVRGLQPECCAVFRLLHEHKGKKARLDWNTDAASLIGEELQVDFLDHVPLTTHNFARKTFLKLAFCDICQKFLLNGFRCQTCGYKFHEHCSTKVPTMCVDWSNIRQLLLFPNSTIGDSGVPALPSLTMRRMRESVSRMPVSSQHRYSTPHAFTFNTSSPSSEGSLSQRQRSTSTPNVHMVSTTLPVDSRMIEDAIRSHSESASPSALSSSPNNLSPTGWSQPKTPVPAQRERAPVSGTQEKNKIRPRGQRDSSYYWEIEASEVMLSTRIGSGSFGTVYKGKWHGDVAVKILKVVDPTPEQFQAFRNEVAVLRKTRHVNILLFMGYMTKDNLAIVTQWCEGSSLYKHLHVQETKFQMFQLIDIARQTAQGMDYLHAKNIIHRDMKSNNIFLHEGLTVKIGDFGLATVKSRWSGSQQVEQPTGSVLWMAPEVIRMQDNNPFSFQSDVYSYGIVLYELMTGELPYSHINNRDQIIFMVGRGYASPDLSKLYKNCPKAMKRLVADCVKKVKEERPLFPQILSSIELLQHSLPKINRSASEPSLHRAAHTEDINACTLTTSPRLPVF

# Smiles Code, Units Text, Kd
measured = [
    ("Cn1cnc2ccc(Oc3cccc(NS(=O)(=O)N4CC[C@@H](F)C4)c3C#N)cc2c1=O", "nM", 8.9),
    ("Cn1cnc2ccc(Oc3c(Cl)ccc(NS(=O)(=O)N4CC[C@@H](F)C4)c3C#N)cc2c1=O", "nM", 9.4),
    ("CCN(C)S(=O)(=O)Nc1ccc(F)c(Oc2ccc3ncn(C)c(=O)c3c2)c1C#N", "nM", 6.3),
    ("Cn1cnc2ccc(Oc3c(F)ccc(NS(=O)(=O)N4CCCC4)c3C#N)cc2c1=O", "nM", 0.8),
]

###

The entries below come with measured log10 of Kd values attached.
# Experimental Target: BRAF (Homo sapiens, UniProt P15056)
# Sequence (P15056 whole entry): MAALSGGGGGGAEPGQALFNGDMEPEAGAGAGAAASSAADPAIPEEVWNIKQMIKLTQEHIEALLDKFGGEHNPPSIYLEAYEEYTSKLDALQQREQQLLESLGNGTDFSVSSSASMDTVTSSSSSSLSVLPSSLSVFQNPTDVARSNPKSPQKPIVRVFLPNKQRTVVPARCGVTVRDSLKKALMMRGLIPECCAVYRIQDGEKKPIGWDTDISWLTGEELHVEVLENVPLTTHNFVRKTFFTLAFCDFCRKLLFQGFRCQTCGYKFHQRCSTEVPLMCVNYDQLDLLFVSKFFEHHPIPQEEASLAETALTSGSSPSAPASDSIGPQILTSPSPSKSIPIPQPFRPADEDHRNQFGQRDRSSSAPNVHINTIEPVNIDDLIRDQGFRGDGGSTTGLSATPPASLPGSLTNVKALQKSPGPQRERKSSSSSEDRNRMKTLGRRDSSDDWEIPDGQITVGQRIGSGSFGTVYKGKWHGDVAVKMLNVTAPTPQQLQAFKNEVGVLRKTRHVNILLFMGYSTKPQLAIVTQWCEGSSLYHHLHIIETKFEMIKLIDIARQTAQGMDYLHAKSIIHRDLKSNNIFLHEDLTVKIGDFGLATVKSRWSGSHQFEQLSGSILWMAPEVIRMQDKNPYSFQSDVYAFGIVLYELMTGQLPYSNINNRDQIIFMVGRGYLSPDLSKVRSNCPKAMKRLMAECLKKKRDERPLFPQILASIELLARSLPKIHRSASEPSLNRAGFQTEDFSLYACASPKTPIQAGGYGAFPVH
# Assay Details: Kd for RAF kinases: BRAF
# Assay type: binding
# Run Parameters: read-out: Kd BRAF
Endpoint: log10 of Kd (log10 of the value in nM)

# Smiles Code, Experimental Target, log10 of Kd
data = [
    ("CCN(C)S(=O)(=O)Nc1cccc(Nc2ccc3ncn(C)c(=O)c3c2)c1C#N", "BRAF (Homo sapiens, UniProt P15056)", 1.06),
    ("CCN(C)S(=O)(=O)Nc1ccc(F)c(Oc2ccc3ncn(C)c(=O)c3c2)c1C#N", "BRAF (Homo sapiens, UniProt P15056)", 0.20),
    ("Cn1cnc2ccc(Oc3c(F)ccc(NS(=O)(=O)N4CCCC4)c3C#N)cc2c1=O", "BRAF (Homo sapiens, UniProt P15056)", -0.40),
    ("Cn1cnc2ccc(Nc3c(Cl)ccc(NS(=O)(=O)N4CCCC4)c3C#N)cc2c1=O", "BRAF (Homo sapiens, UniProt P15056)", 0.15),
    ("Cn1cnc2ccc(Oc3cccc(NS(=O)(=O)C4CCCCC4)c3C#N)cc2c1=O", "BRAF (Homo sapiens, UniProt P15056)", 0.38),
]

###

Entries annotated with measured pKd
# Experimental Target: CRAF (Homo sapiens)
pKd: −log10 of the molar value.
Endpoint: pKd

# Compound, Experimental Target, Endpoint, Readout Number
rows = [
    ("CN(C)S(=O)(=O)Nc1ccc(F)c(Oc2ccc3ncn(C)c(=O)c3c2)c1C#N", "CRAF (Homo sapiens)", "pKd", 8.52),
    ("CCN(C)S(=O)(=O)Nc1cccc(Oc2ccc3ncn(C)c(=O)c3c2)c1C#N", "CRAF (Homo sapiens)", "pKd", 8.14),
    ("CCC(C)S(=O)(=O)Nc1cccc(Oc2ccc3ncn(C)c(=O)c3c2)c1C#N (racemic)", "CRAF (Homo sapiens)", "pKd", 8.17),
    ("Cn1cnc2ccc(Oc3cccc(NS(=O)(=O)C4CCCC4)c3C#N)cc2c1=O", "CRAF (Homo sapiens)", "pKd", 8.74),
]

###

# Experimental Target: BRAF (Homo sapiens, UniProt P15056)
# Assay Details: Kd for RAF kinases: BRAF
# Type: binding
Class membership depends on Kd alone; the intervals are lower segment: < 2 nM; middle segment: ≥ 2 nM and < 9 nM; upper segment: ≥ 9 nM

# Compound, Label
records = [
    ("Cn1cnc2ccc(Oc3c(Cl)ccc(NS(=O)(=O)N4CCCC4)c3C#N)cc2c1=O [Example 4]", "middle segment"),
    ("Cn1cnc2ccc(Oc3cccc(NS(=O)(=O)N4CCCC4)c3C#N)cc2c1=O [Example 6]", "lower segment"),
    ("Cn1cnc2ccc(Oc3c(Cl)ccc(NS(=O)(=O)N4CC[C@@H](F)C4)c3C#N)cc2c1=O [Example 3]", "upper segment"),
    ("CCN(C)S(=O)(=O)Nc1cccc(Oc2ccc3ncn(C)c(=O)c3c2)c1C#N [Example 5]", "upper segment"),
    ("Cn1cnc2ccc(Oc3cccc(NS(=O)(=O)C4CCCC4)c3C#N)cc2c1=O [Example 8]", "middle segment"),
    ("CCN(C)S(=O)(=O)Nc1ccc(Cl)c(Nc2ccc3ncn(C)c(=O)c3c2)c1C#N [Example 13]", "middle segment"),
    ("CCC(C)S(=O)(=O)Nc1cccc(Oc2ccc3ncn(C)c(=O)c3c2)c1C#N (racemic) [Example 10]", "middle segment"),
    ("CCN(C)S(=O)(=O)Nc1ccc(Cl)c(Oc2ccc3ncn(C)c(=O)c3c2)c1C#N [Example 2]", "upper segment"),
    ("CN(C)S(=O)(=O)Nc1ccc(F)c(Oc2ccc3ncn(C)c(=O)c3c2)c1C#N [Example 17]", "lower segment"),
    ("Cn1cnc2ccc(Oc3c(F)ccc(NS(=O)(=O)C4CCCC4)c3C#N)cc2c1=O [Example 16]", "lower segment"),
]
